Tested on: CCRIS mutagenicity, Ames/micronucleus/aberration tests
Experiment: CCRIS mutagenicity studies
Details: Test System: AMES SALMONELLA TYPHIMURIUM; Strain/Indicator: TA98; Metabolic Activation: RAT, LIVER, S-9, KANECHLOR 500; Method: PREINCUBATION
Calls of active or inactive are those of the source. The rule behind the calls is not given here.
Your answer must be one of the following: active, inactive

* O=C(O)c1cc([N+](=O)[O-])ccc1[N+](=O)[O-] | active
* O=Cc1ccccc1[N+](=O)[O-] | inactive

How was O=[N+]([O-])c1ccc(Cl)cc1 classified in this test? inactive

How was Cc1ccc(N)cc1[N+](=O)[O-] classified in this test? active
